system: SMMC-7721; assay: Cell cycle arrest in human SMMC7721 cells assessed as accumulation at S phase at 1 uM incubated for 48 hrs by propidium iodide staining based flow cytometry (Rvb=6.83%); type: functional
measuredQuantity: Activity (%)
Expressed in %, but write only the number.

Q) Give the measured Activity for "COc1ccc2c(=O)n(C)c(SCc3ccc(C(=O)Nc4ccccc4N)cc3)nc2c1"
A) 19.34

Q) Supply measured Activity of "Nc1ccccc1NC(=O)c1ccc(CNC(=O)OCc2cccnc2)cc1" in your reply.
A) 9.55

Q) Return Activity for the following compound: "Cn1c(SCc2ccc(C(=O)Nc3ccccc3N)cc2)nc2cc(Br)ccc2c1=O"
A) 18.28

Q) For the compound "COc1ccc2c(=O)n(-c3ccccc3Cl)c(SCc3ccc(C(=O)Nc4ccccc4N)cc3)nc2c1" , give its measured Activity value.
A) 28.44

Q) Annotate the compound "Nc1ccc(F)cc1NC(=O)c1ccc(CNC(=O)/C=C/c2cccnc2)cc1" with its measured Activity.
A) 13.16

Q) Fill in reported Activity for this entry: "CC(=O)Nc1ccc(C(=O)Nc2ccccc2N)cc1"
A) 17.41

Q) Report Activity, nothing else, for this compound: "CCn1c(SCc2ccc(/C=C/C(=O)Nc3ccccc3N)cc2)nc2cc(OC)ccc2c1=O"
A) 16.13

====

system: A-375; test: Antiproliferative activity against human A375 cells assessed as reduction in cell growth at 2 uM incubated for 72 hrs by CCK-8 assay relative to control; type: functional; settings: A-375, 72 h
Kindly return MET if reported inhibition at 2 µM is no lower than 10%; return NOT MET if it is lower.

Q) // inclusive: inhibition at 2 µM at least 10%? input: "Cn1c(SCc2ccc(/C=C/C(=O)Nc3ccccc3N)cc2)nc2cc(F)ccc2c1=O"
A) NOT MET

Q) Determine whether measured inhibition at 2 µM meets or exceeds 10% for "COc1ccc2c(=O)n(-c3ccccc3Cl)c(SCc3ccc(C(=O)Nc4ccccc4N)cc3)nc2c1"
A) MET

Q) Hi team, for "CCn1c(SCc2ccc(/C=C/C(=O)Nc3ccccc3N)cc2)nc2cc(Cl)ccc2c1=O" , is the recorded inhibition at 2 µM at or above 10%?
A) MET

Q) Entry "Cc1ccc2nc(SCc3ccc(/C=C/C(=O)Nc4ccccc4N)cc3)n(C)c(=O)c2c1" : is its inhibition at 2 µM no less than 10%?
A) NOT MET

Q) Check the entry "CC(=O)Nc1ccc(C(=O)Nc2ccccc2N)cc1" : does inhibition at 2 µM equal or exceed 10%?
A) MET

Q) Check this compound for inhibition at 2 µM at or above 10%: "CCn1c(SCC(=O)Nc2ccccc2N)nc2cc(Cl)ccc2c1=O"
A) MET

Q) Is reported inhibition at 2 µM greater than or equal to 10% here: "COc1ccc2c(=O)n(-c3cccc(Cl)c3)c(SCc3ccc(/C=C/C(=O)Nc4ccccc4N)cc3)nc2c1"
A) NOT MET

Q) Is inhibition at 2 µM at least 10%? Consider "CCn1c(SCc2ccc(C(=O)Nc3ccccc3N)cc2)nc2cc(OC)ccc2c1=O"
A) MET

Q) Tell me whether inhibition at 2 µM is at least 10% here: "CCn1c(SCc2ccc(C(=O)Nc3ccccc3N)cc2)nc2cc(Cl)ccc2c1=O"
A) MET

====

system: HCT-116; assay: Antiproliferative activity against human HCT116 cells assessed as reduction in cell growth incubated for 72 hrs by CCK-8 assay; format: functional, cell-based; details: HCT-116, 72 h
Lab note: cut-off is 2000 nM. Strictly less in IC50 is Satisfied. Exactly 2000 nM or more is Not satisfied.

Q) Lab log: compare recorded IC50 with 2000 nM; is it strictly lower for "Cn1c(SCc2ccc(C(=O)Nc3ccccc3N)cc2)nc2cc(Cl)ccc2c1=O" ?
A) Not satisfied

Q) # check: IC50 < 2000 nM for "CCn1c(SCc2ccc(C(=O)Nc3ccccc3N)cc2)nc2cc(Br)ccc2c1=O"
A) Not satisfied

Q) Decide: IC50 of "COc1ccc2c(=O)n(-c3cccc(Cl)c3)c(SCc3ccc(C(=O)Nc4ccccc4N)cc3)nc2c1" strictly below 2000 nM?
A) Not satisfied

Q) Strictly below 2000 nM: is that where IC50 of "CCCCn1c(SCc2ccc(C(=O)Nc3ccccc3N)cc2)nc2cc(F)ccc2c1=O" sits?
A) Not satisfied

Q) Could you please tell me whether IC50 recorded for "COc1ccc2c(=O)n(C)c(SCc3ccc(C(=O)Nc4ccccc4N)cc3)nc2c1" is less than 2000 nM?
A) Satisfied

Q) is_below(IC50, 2000 nM) for "COc1ccc2c(=O)n(-c3ccccc3C)c(SCc3ccc(C(=O)Nc4ccccc4N)cc3)nc2c1" ?
A) Satisfied

Q) Given the entry "COc1ccc2c(=O)n(-c3ccccc3Cl)c(SCc3ccc(C(=O)Nc4ccccc4N)cc3)nc2c1" , would its reported IC50 be below 2000 nM?
A) Not satisfied

Q) Criterion: IC50 strictly below 2000 nM. Is it met by COc1ccc2c(=O)n(CC/C=C/[S+](C)[O-])c(SCc3ccc(C(=O)Nc4ccccc4N)cc3)nc2c1 (centres undefined) ?
A) Satisfied

Q) Is IC50 of "Cc1cccc2c(=O)n(C)c(SCc3ccc(C(=O)Nc4ccccc4N)cc3)nc12" strictly below 2000 nM?
A) Not satisfied

Q) # check: IC50 < 2000 nM for "Cc1ccc2c(=O)n(C)c(SCc3ccc(C(=O)Nc4ccccc4N)cc3)nc2c1"
A) Not satisfied

Q) IC50 under 2000 nM? Item: "CCn1c(SCc2ccc(/C=C/C(=O)Nc3ccccc3N)cc2)nc2cc(OC)ccc2c1=O"
A) Satisfied

Q) I'd appreciate it if you could check whether "Cn1c(SCc2ccc(C(=O)Nc3ccccc3N)cc2)nc2cc(Br)ccc2c1=O" has IC50 smaller than 2000 nM.
A) Satisfied

Q) Hello, is IC50 of the following molecule strictly smaller than 2000 nM? "Cn1c(SCc2ccc(C(=O)Nc3ccccc3N)cc2)nc2cc(F)ccc2c1=O"
A) Not satisfied
